These entries and their values trace back to patent US20140128352A1.

biological target: succinate dehydrogenase/complex II (SDH) (Rattus norvegicus, UniProt P21913+Q641Z9+Q6PCT8+Q920L2); construct: freshly isolated muscle mitochondria were assayed; from tissue; host or cells: rat skeletal muscle mitochondria (Wistar, Harlan Laboratories); experiment: High-throughput screen: ROS production from succinate dehydrogenase/complex II (SDH); format: biochemical; conditions: Table 9; percent change in ROS from DMSO controls
Sequence (Q920L2 35-656): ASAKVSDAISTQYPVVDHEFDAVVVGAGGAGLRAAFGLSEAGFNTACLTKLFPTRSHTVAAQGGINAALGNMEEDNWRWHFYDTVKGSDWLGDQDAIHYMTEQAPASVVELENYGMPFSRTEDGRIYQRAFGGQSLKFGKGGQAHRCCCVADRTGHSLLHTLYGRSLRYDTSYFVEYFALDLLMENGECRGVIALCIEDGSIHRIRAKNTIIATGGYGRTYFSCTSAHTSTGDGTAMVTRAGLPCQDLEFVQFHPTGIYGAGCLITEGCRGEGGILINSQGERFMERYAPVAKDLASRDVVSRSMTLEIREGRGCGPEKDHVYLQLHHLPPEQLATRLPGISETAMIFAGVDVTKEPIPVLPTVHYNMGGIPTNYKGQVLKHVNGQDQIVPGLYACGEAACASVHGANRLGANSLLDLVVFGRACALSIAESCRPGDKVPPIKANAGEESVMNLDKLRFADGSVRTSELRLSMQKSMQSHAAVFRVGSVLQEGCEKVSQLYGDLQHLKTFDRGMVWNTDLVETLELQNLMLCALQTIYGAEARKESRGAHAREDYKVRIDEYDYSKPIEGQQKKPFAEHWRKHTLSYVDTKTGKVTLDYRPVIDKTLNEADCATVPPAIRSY
Sequence (P21913 31-282): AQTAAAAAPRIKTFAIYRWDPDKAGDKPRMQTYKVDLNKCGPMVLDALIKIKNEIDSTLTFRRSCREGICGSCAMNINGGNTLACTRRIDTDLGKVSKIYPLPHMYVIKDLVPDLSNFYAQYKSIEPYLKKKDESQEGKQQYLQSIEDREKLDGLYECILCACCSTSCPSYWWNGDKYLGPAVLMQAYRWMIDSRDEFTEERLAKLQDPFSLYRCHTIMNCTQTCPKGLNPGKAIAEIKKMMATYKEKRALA
Sequence (Q641Z9 30-169 limits assumed): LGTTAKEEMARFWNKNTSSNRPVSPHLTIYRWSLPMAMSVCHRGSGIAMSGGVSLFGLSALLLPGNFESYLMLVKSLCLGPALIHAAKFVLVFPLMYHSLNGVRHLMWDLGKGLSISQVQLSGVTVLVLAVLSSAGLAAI
Sequence (Q6PCT8 57-159): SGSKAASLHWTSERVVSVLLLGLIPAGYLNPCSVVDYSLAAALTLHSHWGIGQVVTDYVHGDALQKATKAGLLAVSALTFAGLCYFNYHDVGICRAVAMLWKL
Binning rule for recorded SDH: class 1: < -1; class 2: ≥ -1 and < 2; class 3: ≥ 2

Before answering, review these 3 worked examples.
COMPOUND	LABEL VALUE
c1cc2c3c(ccc(CSCCc4ccncc4)c3c1)CC2 [Compound 36]	class 1
Cc1ccc(S(=O)(=O)Nc2nnc(C)s2)cc1 [Compound 27]	class 2
COc1ccc(C2C(C#N)=C(N)Oc3c2c(=O)oc2ccccc32)cc1O (centres unmarked) [Compound 74]	class 1

Could you now consider this next compound?
Which SDH category applies to COc1ccc(Cl)cc1N(Cc1ccccc1)Cc1ccccc1 [Compound 34] here? class 3
